biological target: RGS4(Δ7) mutant (Rattus norvegicus, UniProt P49799, C132A/C148A/C183A/C197A/C204A/C71A/C95A); construct: fused to the N-terminus of an RGS4 construct containing amino acids 51-205; 10x His tag (N, cleaved yes); TEV protease recognition site (N, cleaved yes); assay: Malachite green assay counter screen against cysteine-null RGS4(Δ7) mutant; settings: concentration-response
Sequence (P49799 51-205 C71A/C95A/C132A/C148A/C183A/C197A/C204A limits assumed): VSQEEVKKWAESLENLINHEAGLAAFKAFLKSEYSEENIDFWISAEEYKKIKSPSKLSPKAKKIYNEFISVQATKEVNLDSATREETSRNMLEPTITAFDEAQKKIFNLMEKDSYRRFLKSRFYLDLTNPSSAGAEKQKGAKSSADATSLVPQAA
Structures can show the parent of a compound that is named as a salt.
Test readout: pIC50
Keep in mind that pIC50 stands for -log10 of concentration in molar terms.

Example cases with answers are listed next.
molecule=CC1=C(O)C(=O)C=C2C1=CC=C1[C@@]2(C)CC[C@@]2(C)[C@@H]3C[C@](C)(C(=O)O)CC[C@]3(C)CC[C@]12C quantitative_result=4.06
molecule="C[n+]1cc2c3c(ccc2c2ccc4cc5c(cc4c21)OCO5)OCO3 [UI-5, sanguinarium sulfate]" quantitative_result=3.34

Now consider the entry below.
Just so you know, measured pIC50 for "CC(C)=CCC[C@]1(C)C=Cc2c(O)c3c(c(CC=C(C)C)c2O1)O[C@]12C(=C[C@@H]4C[C@H]1C(C)(C)O[C@@]2(C/C=C(/C)C(=O)O)C4=O)C3=O" came out at 4.29
